Tested on: KBM7 CUL4Amut cells
Assay: Cell viability assay, KBM7 CUL4A mutant
Assay type: cell-based, human
Conditions: Table 2, data of FIG. 6; 3-day treatment; read-out: LC50 CUL4Amut
CC50 by entry:
API: value field is a number in nM; no unit string.

Recorded CC50, per entry:
1) Cc1ccc(C(=O)N2CSCC2C(=O)N=c2[nH]cc(C)s2)o1 (stereo not drawn) = 2260
2) O=C(CSc1nnc2c(n1)[nH]c1ccccc12)Nc1ccc(Cl)cn1 = 1220

Alright, here's another compound for you.
Which measured CC50 belongs to O=C(CSc1nc2ccccc2[nH]1)Nc1ccc(Cl)cn1 , tested on KBM7 CUL4Amut cells? 1560

Data origin: patent US12410152B2
